target: UniProtKB P20272; assay: Displacement of [3H]CP-55,940 from CB1 receptor in rat brain membranes incubated for 30 mins; format: cell membranes, Membrane
Measured quantity: Ki (nM)
Enter your answer as a number in nM; do not include the unit.

What the record says about CC1(C)Oc2cc([C@]34CC5CC(C[C@@](N=C=S)(C5)C3)C4)cc(O)c2[C@@H]2C[C@H](O)CC[C@H]21 : Ki is 58.6

###

target: UniProtKB P34972; assay: Displacement of [3H]CP-55,940 from human CB2 receptor expressed in HEK293 cell membranes; settings: read-out: Ki
Sequence (P34972 whole entry): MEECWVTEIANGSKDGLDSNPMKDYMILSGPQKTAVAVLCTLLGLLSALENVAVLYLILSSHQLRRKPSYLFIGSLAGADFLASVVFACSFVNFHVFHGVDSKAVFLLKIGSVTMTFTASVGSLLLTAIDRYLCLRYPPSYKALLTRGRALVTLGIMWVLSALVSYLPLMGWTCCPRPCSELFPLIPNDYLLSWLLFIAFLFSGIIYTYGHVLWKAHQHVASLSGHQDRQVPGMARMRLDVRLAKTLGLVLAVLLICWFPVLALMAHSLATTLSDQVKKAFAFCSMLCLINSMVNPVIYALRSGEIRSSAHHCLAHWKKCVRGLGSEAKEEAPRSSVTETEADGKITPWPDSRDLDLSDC
Collected Ki values appear next to each entry.

Some compounds with known Ki results, for comparison:
CC1(C)Oc2cc([C@]34CC5CC(C[C@@](C(N)=O)(C5)C3)C4)cc(O)c2[C@@H]2C[C@H](O)CC[C@H]21; 337 nM
COC(=O)N[C@]12CC3CC(C1)C[C@](c1cc(O)c4c(c1)OC(C)(C)[C@@H]1CC[C@@H](O)C[C@@H]41)(C3)C2; 8.4 nM

Sure, the documented Ki for CC1(C)Oc2cc([C@]34CC5CC(C[C@@](CC#N)(C5)C3)C4)cc(O)c2[C@@H]2C[C@H](O)CC[C@H]21 is 4.6 nM

Reported Ki of CC1(C)Oc2cc([C@]34CC5CC(C[C@@](CN=[N+]=[N-])(C5)C3)C4)cc(O)c2[C@@H]2C[C@H](O)CC[C@H]21 : 9.6 nM

Record CC1(C)Oc2cc([C@]34CC5CC(C[C@@](N)(C5)C3)C4)cc(O)c2[C@@H]2C[C@H](O)CC[C@H]21 . Reported Ki: > 1000 nM

Sure, the documented Ki for CC1(C)Oc2cc([C@]34CC5CC(C[C@@](N=[N+]=[N-])(C5)C3)C4)cc(O)c2[C@@H]2C[C@H](O)CC[C@H]21 is 24.8 nM

For record CC1(C)Oc2cc([C@]34CC5CC(C[C@@](CN)(C5)C3)C4)cc(O)c2[C@@H]2C[C@H](O)CC[C@H]21 the listed Ki is > 1000 nM

GET /value?item= CC1(C)Oc2cc([C@]34CC5CC(C[C@@](C#N)(C5)C3)C4)cc(O)c2[C@@H]2C[C@H](O)CC[C@H]21 &field=Ki returns 4.2 nM

Short answer for CC1(C)Oc2cc([C@]34CC5CC(C[C@@](C(=O)O)(C5)C3)C4)cc(O)c2[C@@H]2C[C@H](O)CC[C@H]21 : Ki was > 1000 nM

###

target: Cannabinoid receptor 1 (Rattus norvegicus, UniProt P20272); experiment: Displacement of [3H]CP-55,940 from CB1 receptor in rat brain membranes; format: cell membranes, Membrane; conditions: read-out: Ki(app)
# pKi annotations
// returns pKi (minus log10 of molar concentration), number only

CC1(C)Oc2cc([C@]34CC5CC(C[C@@](CN=C=S)(C5)C3)C4)cc(O)c2[C@@H]2C[C@H](O)CC[C@H]21; 8.52

Continue with the next compound.
Reported pKi for CC1(C)Oc2cc([C@]34CC5CC(C[C@@](N=C=S)(C5)C3)C4)cc(O)c2[C@@H]2C[C@H](O)CC[C@H]21 was 7.45

###

molecular target: Cannabinoid receptor 1 (Rattus norvegicus, UniProt P20272); experiment: Displacement of [3H]CP-55,940 from CB1 receptor in rat brain membranes incubated for 90 mins; format: cell membranes, Membrane
Measured quantity: pKi
// field semantics: pKi = negative decimal log of concentration (mol/L)

Entry CC1(C)Oc2cc([C@]34CC5CC(C[C@@](N=C=S)(C5)C3)C4)cc(O)c2[C@@H]2C[C@H](O)CC[C@H]21 , tested on Cannabinoid receptor 1 (Rattus norvegicus, UniProt P20272), has a reported pKi of 7.45

###

target: Cannabinoid receptor 1 (Rattus norvegicus); test: Displacement of [3H]CP-55,940 from CB1 receptor in rat brain membranes; format: cell membranes, Membrane; conditions: read-out: Ki
Measured quantity: Ki

Use these answered entries as a reference point.
CC1(C)Oc2cc([C@]34CC5CC(C[C@@](C(=O)O)(C5)C3)C4)cc(O)c2[C@@H]2C[C@H](O)CC[C@H]21; > 1 µM
CC1(C)Oc2cc([C@]34CC5CC(C[C@@](CN)(C5)C3)C4)cc(O)c2[C@@H]2C[C@H](O)CC[C@H]21; > 1 µM

// next entry
In plain terms, CC1(C)Oc2cc([C@]34CC5CC(C[C@@](N)(C5)C3)C4)cc(O)c2[C@@H]2C[C@H](O)CC[C@H]21 has a documented Ki of > 1 µM

###

target: Cannabinoid receptor 1 (Rattus norvegicus) (UniProt P20272); test: Agonist activity at rat CB1 receptor expressed in HEK293 cells assessed as inhibition of forskolin-induced cAMP accumulation incubated for 60 mins relative to 500 nM CP-55,940; assay type: functional, cell-based
Sequence (P20272 whole entry): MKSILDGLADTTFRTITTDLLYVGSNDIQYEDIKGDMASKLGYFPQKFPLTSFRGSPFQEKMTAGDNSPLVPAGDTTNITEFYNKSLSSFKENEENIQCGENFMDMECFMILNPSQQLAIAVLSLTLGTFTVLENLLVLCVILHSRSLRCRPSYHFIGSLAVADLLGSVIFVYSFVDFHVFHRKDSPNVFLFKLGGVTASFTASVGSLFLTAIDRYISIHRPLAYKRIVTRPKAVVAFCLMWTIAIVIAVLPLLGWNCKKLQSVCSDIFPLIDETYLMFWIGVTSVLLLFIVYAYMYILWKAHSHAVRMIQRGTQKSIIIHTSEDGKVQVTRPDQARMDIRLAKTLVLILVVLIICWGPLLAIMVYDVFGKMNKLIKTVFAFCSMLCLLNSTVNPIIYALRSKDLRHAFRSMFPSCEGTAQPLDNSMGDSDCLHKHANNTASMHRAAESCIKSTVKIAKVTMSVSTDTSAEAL
Known Emax of a selection of compounds
Return type: number; implicit unit %.

Field Emax (entry COC(=O)N[C@]12CC3CC(C1)C[C@](c1cc(O)c4c(c1)OC(C)(C)[C@@H]1CC[C@@H](O)C[C@@H]41)(C3)C2 ) reads 71

Reported Emax of CC1(C)Oc2cc(C34CC5CC(CC(C5)C3)C4)cc(O)c2[C@@H]2C[C@H](O)CC[C@H]21 : 69

GET /value?item= CC1(C)Oc2cc([C@]34CC5CC(C[C@@](N=C=S)(C5)C3)C4)cc(O)c2[C@@H]2C[C@H](O)CC[C@H]21 &field=Emax returns 68
